Test system: NCI-H522
Assay: NCI tumour cell line growth inhibition, 48 h
The source made the active and inactive calls. Cut-off read from the data, not from the text of the source: active = GI50 up to about 1.1 µM and inactive = higher.
Pick from y (active), n (inactive) when you respond.

CSC(=O)c1sc(SC)[n+](-c2ccccc2)c1O; n
c1ccc(CSc2ccccc2CN2CCN(Cc3ccccc3SCc3ccccc3)CCN(Cc3ccccc3SCc3ccccc3)CC2)cc1; y

Now let's try a different one.
Status in this test for O=C(CSc1nnc(Cc2ccccc2)o1)Nc1cccc(Cl)c1 ?
n

----------
System: NCI-H460
Assay: NCI tumour cell line growth inhibition, 48 h
Calls of active or inactive are those of the source. Cut-off read from the data, not from the text of the source: active = GI50 up to about 1.1 µM and inactive = higher.
reported_endpoint: GI50

COc1ccc(/C=C2/S/C(=N\c3ccccc3)N(NC(=O)Cc3ccccc3)C2=O)c(OC)c1; > 100 µM (inactive)

Please find the next molecule below.
Item under review: CCOC(=O)c1ccc(C(=O)/C(C(C)=O)=C2\CCCN2C)n1C . Reported GI50?
> 100 µM (inactive)

----------
# maps each entry to its GI50
Test system: CAKI-1
Assay: NCI tumour cell line growth inhibition, 48 h
The source made the active and inactive calls. Rule as the data show it: active = GI50 up to about 1.1 µM and inactive = higher.

Known GI50 results, listed for orientation:
CC1/C=C/C=C/CC/C=C/C=C/C=C/C=C/C(OC2OC(C)C(O)C(N)C2O)CC2OC(CC(O)C(O)CCC(O)CC(O)CC(O)CC(=O)OC(C)C(C)C1O)CC(O)C2C(=O)O (stereo unspecified); 17.5 µM (inactive)
C=C1C(=O)O[C@@H]2C(=O)[C@@H](C)CCC/C(C)=C/CC[C@@]3(C)O[C@@H]3C[C@@H]12; 19.9 µM (inactive)
CC(=O)Oc1ccc2c(-c3ccccc3)c(Oc3ccc(Cl)cc3)c(=O)oc2c1; 18.3 µM (inactive)
N#CCCN(CCCN(CCCN(C(=O)Nc1ccccc1)c1ccccc1)C(=O)Nc1ccccc1)C(=O)Nc1ccccc1; > 8.75 µM (inactive)
NC(CCCC(N)P(=O)(O)O)P(=O)(O)O (stereo unspecified); > 100 µM (inactive)
O=NN1CCN=C1c1ccc([N+](=O)[O-])cc1; > 100 µM (inactive)

Item under review: Cc1cc2c(c(C#N)c1C)NC(=O)C(CC(=O)O)C2=O (stereo unspecified) . Reported GI50?
> 100 µM (inactive)

Item under review: CCOC(=O)/C=C(\C(=O)OCC)n1ccc(N)nc1=O . Reported GI50?
37.7 µM (inactive)

Item under review: CCOC(=O)C1(C(=O)OCC)C[C@H](C)[C@](C)(O)C1 . Reported GI50?
> 100 µM (inactive)

Item under review: O=S1(=O)OC(c2ccc(O)cc2)(c2ccc(O)cc2)c2ccccc21 . Reported GI50?
> 100 µM (inactive)

Item under review: COc1ccc([C@H]2C=C(c3cc(F)c(Cl)cc3Cl)NC(=S)N2)cc1 . Reported GI50?
29.4 µM (inactive)

----------
System: Hs-578T
Experiment: NCI tumour cell line growth inhibition, 48 h
Calls of active or inactive are those of the source. No stated cut-off is given here; in the data, active = GI50 up to about 1.1 µM and inactive = higher.
Pick from true (1) (active), false (0) (inactive) when you respond.

O=c1cc(-c2ccccc2)oc2ccc(Oc3nnnn3-c3ccccc3)cc12; false (0)

Status in this test for Cc1ccc([C@@H]2[C@@H](C(=O)c3ccccn3)[C@H](c3ccc(C)cc3)C[C@](O)(c3ccccn3)[C@H]2C(=O)c2ccccn2)cc1 ?
false (0)

Status in this test for O=[N+]([O-])c1ccc(-c2nc3cc([N+](=O)[O-])ccc3[nH]2)cc1 ?
false (0)

Status in this test for C[N+]1(C)C/C(=C\C=C\c2ccccc2)C(=O)/C(=C/C=C/c2ccccc2)C1 ?
false (0)

Status in this test for COc1ccc(C2C(=O)c3ccc(OC)cc3OC2c2cccnc2)cc1 (configuration not stated) ?
false (0)

Status in this test for c1ccc(-c2nnn(CCN3CCCCC3)n2)cc1 ?
false (0)

Status in this test for O=C(/C=C/c1ccccc1)CSc1nc2ccc(I)cc2c(=O)n1Cc1ccccc1 ?
false (0)
